Target: Voltage-dependent calcium channel gamma-2 subunit (Mus musculus) + Glutamate receptor 2 (Rattus norvegicus) (UniProt O88602+P19491)
Sequence (O88602 whole entry, looked up): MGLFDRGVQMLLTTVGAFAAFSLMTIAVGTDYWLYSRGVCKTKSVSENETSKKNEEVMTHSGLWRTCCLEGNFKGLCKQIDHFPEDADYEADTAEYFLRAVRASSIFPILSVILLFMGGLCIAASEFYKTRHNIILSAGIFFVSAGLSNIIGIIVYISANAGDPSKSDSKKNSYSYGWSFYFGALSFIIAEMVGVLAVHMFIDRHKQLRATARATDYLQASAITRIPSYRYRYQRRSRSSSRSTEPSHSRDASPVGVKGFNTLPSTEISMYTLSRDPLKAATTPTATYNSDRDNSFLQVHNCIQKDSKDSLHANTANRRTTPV
Sequence (P19491 whole entry, looked up): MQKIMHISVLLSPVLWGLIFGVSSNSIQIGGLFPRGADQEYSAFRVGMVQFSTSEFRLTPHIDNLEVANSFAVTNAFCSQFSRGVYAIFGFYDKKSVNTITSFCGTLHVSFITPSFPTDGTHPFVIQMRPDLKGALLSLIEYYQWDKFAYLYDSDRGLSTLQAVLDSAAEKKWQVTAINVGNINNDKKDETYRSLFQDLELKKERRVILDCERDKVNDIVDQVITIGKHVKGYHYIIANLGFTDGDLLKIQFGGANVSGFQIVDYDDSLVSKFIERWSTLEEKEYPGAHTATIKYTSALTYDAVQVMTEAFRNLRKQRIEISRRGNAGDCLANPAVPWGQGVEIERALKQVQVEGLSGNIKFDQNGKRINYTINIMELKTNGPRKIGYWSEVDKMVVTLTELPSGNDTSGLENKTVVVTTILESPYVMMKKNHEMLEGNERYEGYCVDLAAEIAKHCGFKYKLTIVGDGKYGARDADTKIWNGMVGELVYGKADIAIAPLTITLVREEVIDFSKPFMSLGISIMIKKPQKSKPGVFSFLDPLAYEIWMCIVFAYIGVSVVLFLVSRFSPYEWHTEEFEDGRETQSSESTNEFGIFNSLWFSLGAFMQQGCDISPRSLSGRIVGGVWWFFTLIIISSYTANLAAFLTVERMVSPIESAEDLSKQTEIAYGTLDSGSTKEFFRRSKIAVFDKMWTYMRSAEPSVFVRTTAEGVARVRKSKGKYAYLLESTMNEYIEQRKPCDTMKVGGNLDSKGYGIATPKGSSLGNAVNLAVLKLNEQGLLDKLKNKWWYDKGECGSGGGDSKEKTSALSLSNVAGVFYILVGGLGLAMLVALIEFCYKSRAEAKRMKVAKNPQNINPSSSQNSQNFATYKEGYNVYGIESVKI
Assay: modulators of GluA2-stargazin AMPA receptor complexes, primary screen, cell-based, membrane potential dye (AID 1259245)
Conditions: HEK293 GluA2+stargazin, membrane potential dye (FDSS), glutamate EC50, at 30 µM, hits were called plate by plate, in both directions; compound-alone response (agonism)
About 1,400 (3.5%) of roughly 40,000 compounds were called active. The full list was thinned out, with actives kept by preference.
Entries and their compound max-min signal values follow.
I only need the number, thanks.

Use the examples below as a reference point.
| molecule | numeric readout |
| --- | --- |
| COc1ccc(Cl)cc1NC(=O)NCC#CCN1CCc2ccccc2C1 | 0.108 |
| CC(=O)c1ccc(C(=O)Nc2sc3c(c2-c2nc4ccccc4s2)CCN(C)C3)cc1 | 0.226 |

## Task Return reported compound max-min signal; argument: "Cc1ccc(-c2nc3c(C)cc(C)cc3c(=O)o2)cc1"
## Result 0.127

## Task Return reported compound max-min signal; argument: "CC(C)NC(=O)Nc1ccc(CN2CCN(C)CC2)cc1"
## Result 0.107

## Task Return reported compound max-min signal; argument: "CCOC(=O)c1csc(NC(=O)c2cc(C)no2)n1"
## Result 0.211

## Task Return reported compound max-min signal; argument: "CCOc1ccc(C(=O)Nc2sc3c(c2-c2nc4ccccc4s2)CCN(C)C3)cc1"
## Result 0.114

## Task Return reported compound max-min signal; argument: COc1ccc(Cl)cc1NC(=O)CC1C(=O)NCCN1C(=S)Nc1ccccc1 (stereo unspecified)
## Result 0.205

## Task Return reported compound max-min signal; argument: CCCOC(=O)CC1C(=O)NCCN1C(=S)NC(=O)c1cccc(Cl)c1 (stereo unspecified)
## Result 0.102

###

Entries and their glutamate slope, % of max values follow.
Molecular target: Voltage-dependent calcium channel gamma-2 subunit (Mus musculus) + Glutamate receptor 2 (Rattus norvegicus) (UniProt O88602+P19491)
Assay: modulators of GluA2-stargazin AMPA receptor complexes, primary screen, cell-based, membrane potential dye (AID 1259245)
Settings: HEK293 GluA2+stargazin, membrane potential dye (FDSS), glutamate EC50, at 30 µM, hits were called plate by plate, in both directions; measured here: glutamate response slope, % max
In all, about 40,000 compounds went through this assay and about 1,400 (3.5%) were called active. Shown is part of a subset that was picked to be rich in actives.
Write it as a number; the unit % goes unstated.

Use the examples below as a reference point.
| compound | glutamate slope, % of max (%) |
| --- | --- |
| Cc1nc2ccccn2c1C(=O)Nc1ccc2c(c1)CC(=O)N2C | 65.1 |
| COc1ccc(-c2ccc(=O)n(CCCC(=O)Nc3ccccc3-c3ccccc3)n2)cc1 | 39 |
| O=C(c1ccno1)N1CCN(c2nc3ccc([N+](=O)[O-])cc3s2)CC1 | 50.2 |

## Task Return reported glutamate slope, % of max; argument: "COc1ccc(SCCC(=O)N2CCN(c3nc4ccc(F)cc4s3)CC2)cc1"
## Result 60.6

## Task Return reported glutamate slope, % of max; argument: "O=C(c1ccc(Cl)c(N2C(=O)CCS2(=O)=O)c1)N1CCc2ccccc2C1"
## Result 47.6

## Task Return reported glutamate slope, % of max; argument: "COc1cc(NS(=O)(=O)c2ccccc2F)ccc1N1CCCCC1=O"
## Result 35.3

## Task Return reported glutamate slope, % of max; argument: "COc1nn(C)cc1C(=O)NCCN1CCN(S(C)(=O)=O)CC1"
## Result 63.9

## Task Return reported glutamate slope, % of max; argument: "O=c1oc2ccc(Cl)cc2cc1S(=O)(=O)c1ccccc1F"
## Result 60

## Task Return reported glutamate slope, % of max; argument: "CC(C)Oc1ccc(C(=O)Nc2ccc3oc(=O)ccc3c2)cc1"
## Result 61.4

## Task Return reported glutamate slope, % of max; argument: "COc1cn(CC(=O)Nc2ccc(NC(C)=O)cc2)c(CSc2ncccn2)cc1=O"
## Result 40.3

## Task Return reported glutamate slope, % of max; argument: "COCCn1c(=NC(=O)c2cc(C)no2)sc2cc(SC)ccc21"
## Result 54.7

###

Target: Voltage-dependent calcium channel gamma-2 subunit (Mus musculus) + Glutamate receptor 2 (Rattus norvegicus) (UniProt O88602+P19491)
Assay: modulators of GluA2-stargazin AMPA receptor complexes, primary screen, cell-based, membrane potential dye (AID 1259245)
Details: HEK293 GluA2+stargazin, membrane potential dye (FDSS), glutamate EC50, at 30 µM, hits were called plate by plate, in both directions; compound-alone response (agonism)
The campaign covered roughly 40,000 compounds. About 1,400 (3.5%) were called active. The list comes from a sample in which actives are over-represented; it also holds close analogues and randomly drawn compounds.
attribute measured: compound max-min signal

| molecule | compound max-min signal |
| --- | --- |
| COc1ccc(S(=O)(=O)Nc2ccc(N3CCCCS3(=O)=O)cc2)cc1F | 0.0701 |
| COc1cc(C)c(C)cc1S(=O)(=O)NCC(O)c1ccc(C(F)(F)F)cc1 (centres undefined) | 0.216 |
| CN(C)S(=O)(=O)c1ccc(C(=O)Nc2ccc3c(c2)N(C(=O)c2ccco2)CC3)cc1 | 0.176 |

Next:
## Task Return reported compound max-min signal; argument: COc1ccc(C(CNC(=O)c2cc(C)cc(C)c2)N2CCOCC2)cc1 (centres undefined)
## Result 0.0728

###

Target: Voltage-dependent calcium channel gamma-2 subunit (Mus musculus) + Glutamate receptor 2 (Rattus norvegicus) (UniProt O88602+P19491)
Assay: modulators of GluA2-stargazin AMPA receptor complexes, primary screen, cell-based, membrane potential dye (AID 1259245)
Settings: HEK293 GluA2+stargazin, membrane potential dye (FDSS), glutamate EC50, at 30 µM, hits were called plate by plate, in both directions; measured here: glutamate response slope, % max
Screen size: about 40,000 compounds; about 1,400 (3.5%) were called active. This excerpt belongs to a sample that is enriched for actives.
attribute measured: glutamate slope, % of max (%)
Write it as a number; the unit % goes unstated.

## Task Return reported glutamate slope, % of max; argument: COc1ccc(C(CNC(=O)c2ccccc2Cl)N2CCOCC2)cc1 (centres undefined)
## Result 45.9

## Task Return reported glutamate slope, % of max; argument: "O=C(NCCn1ncc2c(N3CCN(c4ccccc4)CC3)ncnc21)c1cccs1"
## Result 68.2

## Task Return reported glutamate slope, % of max; argument: "Cc1cc(S(=O)(=O)NCC2(O)CCCC2)ccc1F"
## Result 60.8

## Task Return reported glutamate slope, % of max; argument: "CCn1ccnc1N1CCN(C(=O)CCS(=O)(=O)c2ccccc2)CC1"
## Result 23.3

## Task Return reported glutamate slope, % of max; argument: "CCc1ccccc1NC(=O)NCCOc1ccc2nnc(-c3cccc(F)c3)n2n1"
## Result 52.3

## Task Return reported glutamate slope, % of max; argument: "O=C(Cc1csc(NC(=O)c2ccc(=O)[nH]c2)n1)NCCC1=CCCCC1"
## Result 44.1

## Task Return reported glutamate slope, % of max; argument: "CN(C)S(=O)(=O)c1ccc(C(=O)Nc2ccc3c(c2)N(C(=O)c2ccco2)CC3)cc1"
## Result 62.8

## Task Return reported glutamate slope, % of max; argument: "CCn1nnc2c(N3CCN(CC(=O)Nc4c(C)cc(C)cc4C)CC3)ncnc21"
## Result 39.9

###

Biological target: Voltage-dependent calcium channel gamma-2 subunit (Mus musculus) + Glutamate receptor 2 (Rattus norvegicus) (UniProt O88602+P19491)
Assay: modulators of GluA2-stargazin AMPA receptor complexes, primary screen, cell-based, membrane potential dye (AID 1259245)
Conditions: HEK293 GluA2+stargazin, membrane potential dye (FDSS), glutamate EC50, at 30 µM, hits were called plate by plate, in both directions
The whole screen tested about 40,000 compounds, of which about 1,400 (3.5%) were called active.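 Rule for the calls: active = any of four per-well response measures lying three or more SD from its plate-wide compound average, in either direction; inactive = the rest, inconclusive results apart.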 The list comes from a sample in which actives are over-represented; it also holds close analogues and randomly drawn compounds.
Answer with one of the outcomes active, inactive

| compound | class label |
| --- | --- |
| Cn1cnc2cc(OC(=O)c3ccc(=O)[nH]n3)ccc21 | active |
| C=CCN1CC(c2nc3ccccc3n2Cc2cccc(Cl)c2)CC1=O (centres undefined) | active |
| CCOC(=O)c1csc(NC(=O)c2cc(C)no2)n1 | active |
| CCN1C(SCC(=O)Nc2cccc(Cl)c2)=NS(=O)(=O)c2ccccc21 | inactive |
| COc1ccc(-c2ccc(N3CCN(C(=O)c4ccc(=O)[nH]n4)CC3)nn2)cc1 | inactive |

## Task # outcome recorded in this test, key = "COC(=O)c1ccc(NC(=O)CSc2nc(-c3ccccc3)c(N)s2)cc1"
## Result inactive

## Task # outcome recorded in this test, key = "Cc1ccc(NC(=O)CSC2=NC(C)(C)N=C2c2ccccc2)c(C)c1"
## Result inactive

## Task # outcome recorded in this test, key = "CCOC(=O)c1csc(NC(=O)Cn2cnc(C)cc2=O)n1"
## Result inactive

## Task # outcome recorded in this test, key = "CCOC(=O)CNC(=O)C(=O)c1c(C)[nH]c2ccccc12"
## Result inactive
